Target: T1, monkey GFRα3 expressed with a C-terminal myc-myc-hexahistidine tag (monkey (Mf), UniProt O60609 32-374 (human entry), limits assumed)
T1 construct: also called MfGFRα3-mmh; MfGFRα3-mmH
T1 chain: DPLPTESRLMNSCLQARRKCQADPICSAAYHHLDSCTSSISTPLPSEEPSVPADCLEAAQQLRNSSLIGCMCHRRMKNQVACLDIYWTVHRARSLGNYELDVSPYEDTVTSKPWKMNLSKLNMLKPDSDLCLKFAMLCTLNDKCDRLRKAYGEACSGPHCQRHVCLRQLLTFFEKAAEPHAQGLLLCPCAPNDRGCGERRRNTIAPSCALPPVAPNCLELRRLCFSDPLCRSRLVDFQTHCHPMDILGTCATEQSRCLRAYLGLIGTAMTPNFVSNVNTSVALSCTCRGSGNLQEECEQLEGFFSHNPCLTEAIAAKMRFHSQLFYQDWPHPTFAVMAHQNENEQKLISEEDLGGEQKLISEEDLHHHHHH
Experiment: SPR, Ab captured, 25C
QUANTITY MEASURED: kon (M⁻¹ s⁻¹)
Give the value, in units of M⁻¹ s⁻¹, as a plain number.

H4H2345S (antibody, human IgG4, V domains shown, human IgG4 Fc (H4H)) VH: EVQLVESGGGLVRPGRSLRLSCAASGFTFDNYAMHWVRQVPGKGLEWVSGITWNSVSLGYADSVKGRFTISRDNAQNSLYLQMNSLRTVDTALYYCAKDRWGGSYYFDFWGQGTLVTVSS VL: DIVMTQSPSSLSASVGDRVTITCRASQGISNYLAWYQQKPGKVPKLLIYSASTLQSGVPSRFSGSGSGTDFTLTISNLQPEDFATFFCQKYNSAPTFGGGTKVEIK	97500

Can you look up the measured kon of H4H2354S (antibody, human IgG4, V domains shown, human IgG4 Fc (H4H); also called H4H2354S-1) VH: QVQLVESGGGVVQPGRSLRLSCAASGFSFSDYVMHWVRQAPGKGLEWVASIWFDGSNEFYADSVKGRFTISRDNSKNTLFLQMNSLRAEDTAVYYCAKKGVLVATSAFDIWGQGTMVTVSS VL: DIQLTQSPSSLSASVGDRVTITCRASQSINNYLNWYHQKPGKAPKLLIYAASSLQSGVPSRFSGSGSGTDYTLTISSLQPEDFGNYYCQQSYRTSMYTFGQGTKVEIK for me? 109000

Can you look up the measured kon of H4H2342P (antibody, human IgG4, V domains shown, human IgG4 Fc (H4H)) VH: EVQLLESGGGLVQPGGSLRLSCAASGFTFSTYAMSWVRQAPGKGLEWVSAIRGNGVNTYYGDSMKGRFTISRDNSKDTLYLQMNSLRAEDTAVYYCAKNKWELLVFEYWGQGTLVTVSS VL: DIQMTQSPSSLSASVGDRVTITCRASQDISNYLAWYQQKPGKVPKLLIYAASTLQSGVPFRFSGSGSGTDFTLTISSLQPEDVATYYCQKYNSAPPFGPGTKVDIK for me? 93700
